Record form. Attribute: Inhibition. Fill in for each entry.
System: Candida albicans
Conditions: Concentration 32 ug.mL-1; ASSAY_TEST Inhibition of Fungal Growth; detection method Absorption (OD530)
Description: Antifungal activity against Candida albicans ATCC 90028 (CO-ADD:FG_001); MIC in YNB media using NBS plates, by OD630
Entries with a potency or affinity are not part of this list.
Numbers only, in %.

Some solved cases for reference:
>  <Smiles Notation>
Cc1cc(C)cc(Nc2nc(C)cc3nn(CC(=O)NCc4ccco4)c(=O)n23)c1

>  <Inhibition [%]>
2.86

$$$$
>  <Smiles Notation>
Cc1ccc(NC(=O)Cn2nc3c(N4CCOCC4)nccn3c2=O)cc1Cl

>  <Inhibition [%]>
3.12

$$$$
>  <Smiles Notation>
Cc1ccc(Oc2nccn3c(=O)n(CC(=O)Nc4ccc(C)cc4Cl)nc23)cc1

>  <Inhibition [%]>
3.92

$$$$
>  <Smiles Notation>
COc1ccccc1-n1ccn2c(SCC(=O)Nc3ccc4c(c3)OCO4)nnc2c1=O

>  <Inhibition [%]>
4.47

$$$$
>  <Smiles Notation>
CCc1ccccc1NC(=O)Cn1nc2c(Sc3ccc(C)cc3C)nccn2c1=O

>  <Inhibition [%]>
0.47

$$$$
>  <Smiles Notation>
Cc1ccc(F)cc1NC(=O)CSc1nnc2ccc(C(=O)Nc3cccc(F)c3)cn12

>  <Inhibition [%]>
-0.79

$$$$
>  <Smiles Notation>
Cc1ccc(-c2ccc3nn(CC(=O)N4CCN(c5ccccc5)CC4)c(=O)n3n2)cc1C

>  <Inhibition [%]>
0.84

$$$$
>  <Smiles Notation>
COc1ccc(-c2noc(Cn3nc4ccc(-c5ccccc5)nn4c3=O)n2)cc1OC

>  <Inhibition [%]>
4.81

$$$$
>  <Smiles Notation>
Cc1ccc(NC(=O)Cn2nc3c4cc(-c5ccc(Cl)cc5)nn4ccn3c2=O)cc1F

>  <Inhibition [%]>
-0.67

$$$$

Turning now to a further record.
INPUT: Could you share which Inhibition value was measured for `CC(=O)c1ccc(NC(=O)Cn2c(=O)c3nnc(C(C)C)n3c3ccccc32)cc1` ?
OUTPUT: 0.56
